- SUBJECT OF TEST: human TRPV1 (Homo sapiens)
- Sequence (Q8NER1 whole entry): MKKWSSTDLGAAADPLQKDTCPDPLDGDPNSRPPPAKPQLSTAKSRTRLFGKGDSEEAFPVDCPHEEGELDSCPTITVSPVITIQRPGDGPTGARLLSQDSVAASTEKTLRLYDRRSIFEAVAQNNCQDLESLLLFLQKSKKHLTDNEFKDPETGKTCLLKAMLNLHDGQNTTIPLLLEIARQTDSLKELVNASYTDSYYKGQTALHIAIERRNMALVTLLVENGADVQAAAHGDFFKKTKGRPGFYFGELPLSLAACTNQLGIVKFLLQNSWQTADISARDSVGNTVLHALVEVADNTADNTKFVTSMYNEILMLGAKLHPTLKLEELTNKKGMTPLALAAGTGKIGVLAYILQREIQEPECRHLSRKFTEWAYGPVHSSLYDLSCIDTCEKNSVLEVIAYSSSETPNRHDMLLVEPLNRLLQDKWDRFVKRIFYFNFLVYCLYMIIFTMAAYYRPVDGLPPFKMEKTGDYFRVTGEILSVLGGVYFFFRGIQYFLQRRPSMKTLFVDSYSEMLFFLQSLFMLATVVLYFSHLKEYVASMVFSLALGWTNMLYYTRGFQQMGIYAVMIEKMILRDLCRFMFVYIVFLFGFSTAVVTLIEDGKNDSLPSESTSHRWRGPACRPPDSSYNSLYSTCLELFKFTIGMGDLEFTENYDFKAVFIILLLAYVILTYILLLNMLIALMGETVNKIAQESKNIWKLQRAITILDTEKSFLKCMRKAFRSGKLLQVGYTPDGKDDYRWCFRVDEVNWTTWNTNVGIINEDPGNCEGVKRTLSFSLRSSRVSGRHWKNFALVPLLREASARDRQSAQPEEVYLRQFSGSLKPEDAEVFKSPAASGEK
- TEST DESCRIPTION: hTRPV1 antagonism, inhibition of activation by capsaicin
- Assay type: cell-based
- CONDITION INFO: capsaicin 100 nM; FLIPR; hTRPV1 expressed in CHO cells

COMPOUND	hTRPV1 antagonism in words
CC(C(=O)NCc1ccc(C(F)(F)F)cc1F)c1ccc(NS(C)(=O)=O)c(F)c1 (centres unmarked)	weak antagonists
CC(C(=O)NCc1ccc(C(F)(F)F)cc1[N+](=O)[O-])c1ccc(NS(C)(=O)=O)c(F)c1 (centres unmarked)	weak antagonists

###

- SUBJECT OF TEST: human TRPV1 (Homo sapiens)
- TEST DESCRIPTION: hTRPV1 antagonism, inhibition of activation by capsaicin
- Assay type: cell-based
PARAMETER MEASURED: Ki

# Ki lookup, item CCCCCCOc1cc(C(F)(F)F)ccc1CNC(=O)C(C)c1ccc(NS(C)(=O)=O)c(F)c1 (stereo not shown) [Compound 31] 0.7 to 0.8 nM
